Reference for the values: patent US7132547B2

Where a name gives a salt, the structure may show the parent alone.
outcomeMeasure: melting point

For orientation, consider the following solved cases.
compound: Cl.NS(=O)(=O)c1cc(C(=O)CCCCNCCc2ccccc2)cc2c1OCCO2
melting point: 152 to 154 °C

compound: Cl.O=C(CCCCNCCc1c(Cl)cccc1Cl)c1cc2c3c(c1)CCN3C(=O)CC2
melting point: 171 to 174 °C

compound: COc1ccccc1CCNCCCCC(=O)c1ccc2c(c1)CNC(=O)N2.Cl
melting point: 176 to 180 °C (dec.)

compound: CCOc1ccccc1OCCN1CCC(CCC(=O)c2ccc(OC)c(NC(C)=O)c2)CC1.Cl
melting point: 127 to 129 °C

compound: Cl.O=C(CCCN1CCCc2ccccc2C1)c1cc2c3c(c1)CCN3C(=O)CC2
melting point: 230 to 232 °C

compound: Cl.O=C(CCCCNCCc1ccc(Cl)cc1)c1cc2c3c(c1)CCN3C(=O)CC2
melting point: 193 to 195 °C

compound: COc1cccc(CCNCCCCC(=O)c2cc3c4c(c2)CCN4C(=O)CC3)c1OC.Cl
melting point: 154 to 156 °C

compound: Cl.Cn1c(=O)n(C)c2cc(C(=O)CCCCNCCc3ccccc3)ccc21
melting point: 187 to 189 °C

compound: COc1cc2c(cc1OC)CN(CCCCC(=O)c1cc3c4c(c1)CCN4C(=O)CC3)CC2.Cl
melting point: 215 to 217 °C

compound: Cl.O=C(CCCCNCCc1ccccc1Cl)c1cccs1
melting point: 146 to 147 °C

stdin: Report melting point for `Cl.O=C(CCCCCNCc1ccccc1)c1cc2c3c(c1)CCN3C(=O)CC2` please.
stdout: 181 to 183 °C

stdin: What about `CN(CCCCC(=O)c1ccc2c(c1)n(C)c(=O)n2C)CCc1ccccc1.Cl` ?
stdout: 142 to 157 °C (dec.)

stdin: What about O=C(CCC1CCN(CCc2ccccc2)CC1)c1cc2c3c(c1)CCN3C(=O)CC2 (as salt: hydrochloride) ?
stdout: 219 to 221 °C

stdin: What about `Cl.O=C(CCCCNC1Cc2ccccc2C1)c1cc2c3c(c1)CCN3C(=O)CC2` ?
stdout: 187 to 189 °C

stdin: What about `COc1ccccc1CCN(C)CCCCC(=O)c1ccc2c(c1)CN(C)C(=O)N2C.Cl` ?
stdout: 145 to 146 °C

stdin: What about `Cl.O=C1NCc2cc(C(=O)CCCCNCCc3ccccc3)ccc2N1` ?
stdout: 199 to 205 °C (dec.)

stdin: What about CC(Cc1ccccc1)N1CCC(CCC(=O)c2cc3c4c(c2)CCN4C(=O)CC3)CC1.Cl (racemic) ?
stdout: 211 to 213 °C

stdin: What about `COc1ccc(C(=O)CCCCCNCCc2ccccc2)cc1NS(C)(=O)=O.Cl` ?
stdout: 136 to 138 °C

stdin: What about `Cl.O=C(CCCCNCCc1cccc(F)c1)c1cc2c3c(c1)CCN3C(=O)CC2` ?
stdout: 172 to 173 °C

stdin: What about `CN(CCCCC(=O)c1ccc2c(c1)CN(C)C(=O)N2C)CCc1ccccc1.Cl` ?
stdout: 174 to 176 °C

* * *

- systemUnderTest: human adrenaline α1A receptor (Homo sapiens, UniProt P35348)
- Sequence (P35348 1-466): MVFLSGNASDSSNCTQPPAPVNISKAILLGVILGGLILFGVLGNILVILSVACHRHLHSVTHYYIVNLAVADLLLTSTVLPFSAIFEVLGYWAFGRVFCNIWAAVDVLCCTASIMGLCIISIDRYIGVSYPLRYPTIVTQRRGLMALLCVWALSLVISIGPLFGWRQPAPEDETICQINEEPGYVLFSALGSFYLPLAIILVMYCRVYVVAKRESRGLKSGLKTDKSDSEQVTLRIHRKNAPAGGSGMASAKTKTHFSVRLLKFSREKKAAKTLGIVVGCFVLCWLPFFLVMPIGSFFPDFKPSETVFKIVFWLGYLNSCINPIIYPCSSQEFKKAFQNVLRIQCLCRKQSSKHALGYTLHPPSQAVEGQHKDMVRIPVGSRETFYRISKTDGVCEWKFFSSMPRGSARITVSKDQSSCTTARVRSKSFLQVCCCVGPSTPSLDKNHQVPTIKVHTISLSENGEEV
Where a name gives a salt, the structure may show the parent alone.
Listing: pIC50 of selected molecules
The value called pIC50 is obtained by taking minus log10 of the concentration in mol/L.

For orientation, consider the following solved cases.
molecule: COc1ccccc1CCNCCCCCC(=O)c1cc2c3c(c1)CCN3C(=O)CC2.Cl [Example 20, hydrochloride]
systemUnderTest: human adrenaline α1A receptor (Homo sapiens, UniProt P35348)
pIC50: 6.78
//
molecule: O=C(CCC1CCN(CCc2cccc(F)c2)CC1)c1cc2c3c(c1)CCN3C(=O)CC2 [Example 84, hydrochloride]
systemUnderTest: human adrenaline α1A receptor (Homo sapiens, UniProt P35348)
pIC50: 6.63

Could you now consider this next molecule?
stdin: Report pIC50 for COc1ccccc1N1CCN(CCCNc2cc(=O)n(C)c(=O)n2C)CC1 [urapidil, reference compound] please.
stdout: 6.45

* * *

Listing: melting point of selected compounds

For orientation, consider the following solved cases.
compoundStructureString: COc1ccc(C(=O)CCCCCNCCc2ccccc2Cl)cc1NS(C)(=O)=O.Cl
measured: 112 to 115 °C
//
compoundStructureString: Cl.O=C(CCC1CCN(CCc2c[nH]c3ccccc23)CC1)c1cc2c3c(c1)CCN3C(=O)CC2
measured: 157 to 159 °C
//
compoundStructureString: Cl.O=C(CCCCCN1CCc2ccccc2CC1)c1cc2c3c(c1)CCN3C(=O)CC2
measured: 222 to 225 °C
//
compoundStructureString: COc1ccc(C(=O)CCCCNCCc2ccccc2)cc1NS(C)(=O)=O.Cl
measured: 131 to 133 °C

Could you now consider this next compound?
stdin: Report melting point for `COc1ccccc1CCNCCCCC(=O)c1c[nH]c2ccccc12.Cl` please.
stdout: 143 to 145 °C

* * *

Listing: melting point of selected compounds

compound: Cl.O=C(CCCCCNCCc1ccccc1Cl)c1c[nH]c2ccccc12
melting point: 151 to 153 °C
//
compound: Cl.O=C(CCCCNCCc1ccccc1)c1cc2c3c(c1)CCN3C(=O)CC2
melting point: 166 to 168 °C

stdin: Report melting point for `COc1ccccc1CCNCCCCC(=O)c1cccs1.Cl` please.
stdout: 101 to 103 °C

stdin: What about `Cl.O=C(CCC1CCN(CCCc2ccccc2)CC1)c1cc2c3c(c1)CCN3C(=O)CC2` ?
stdout: 173 to 175 °C

stdin: What about `COc1ccccc1CCNCCCCCC(=O)c1ccc(OC)c(NS(C)(=O)=O)c1.Cl` ?
stdout: 142 to 144 °C

stdin: What about `COc1cccc(CCN(C)CCCCCC(=O)c2cc3c4c(c2)CCN4C(=O)CC3)c1.Cl` ?
stdout: 116 to 118 °C

stdin: What about `COc1ccccc1CCNCCCCCC(=O)c1cccs1.Cl` ?
stdout: 107 to 109 °C

stdin: What about `COc1ccccc1CCN(C)CCCCC(=O)c1ccc2c(c1)CNC(=O)N2.Cl` ?
stdout: 170 to 171 °C (dec.)

stdin: What about `COc1ccccc1CCNCCCCC(=O)c1ccc(OC)c(NS(C)(=O)=O)c1.Cl` ?
stdout: 129 to 131 °C

stdin: What about `Cc1cccc(CCN2CCC(CCC(=O)c3cc4c5c(c3)CCN5C(=O)CC4)CC2)c1.Cl` ?
stdout: 197 to 199 °C

stdin: What about Cl.O=C(CCC1CCN(CC(O)c2ccccc2)CC1)c1cc2c3c(c1)CCN3C(=O)CC2 (racemic) ?
stdout: 235 to 237 °C

* * *

outcomeMeasure: melting point

For orientation, consider the following solved cases.
compound: Cl.O=C(CCCCCNCCc1ccccc1Cl)c1cccs1
measured: 149 to 151 °C
//
compound: COc1ccccc1CCNCCCCC(=O)c1cc2c(c(S(=O)(=O)NC(C)C)c1)OCC2.Cl
measured: 157 to 159 °C

stdin: Report melting point for `Cl.O=C(CCC1CCN(CCc2ccc(Cl)cc2)CC1)c1cc2c3c(c1)CCN3C(=O)CC2` please.
stdout: 204 to 206 °C

stdin: What about Cl.O=C(CCC1CCN(C2CCc3ccccc3C2)CC1)c1cc2c3c(c1)CCN3C(=O)CC2 (racemic) ?
stdout: 223 to 225 °C

stdin: What about `CN(CCCCC(=O)c1ccc2c(c1)CN(C)C(=O)N2C)CCc1ccccc1Cl.Cl` ?
stdout: 187 to 188 °C

* * *

outcomeMeasure: melting point

molecule: COc1ccccc1CCNCCCC(=O)c1cc2c3c(c1)CCN3C(=O)CC2.Cl
measured: 165 to 167 °C

molecule: Cl.O=C(CCC1CCN(C2Cc3ccccc3C2)CC1)c1cc2c3c(c1)CCN3C(=O)CC2
measured: 290 °C (dec.)

molecule: COc1cccc(CCN2CCC(CCC(=O)c3cc4c5c(c3)CCN5C(=O)CC4)CC2)c1.Cl
measured: 240 to 242 °C

Could you now consider this next molecule?
stdin: Report melting point for `Cl.O=C(CCCCCNCCc1ccccc1Cl)c1cc2c3c(c1)CCN3C(=O)CC2` please.
stdout: 172 to 174 °C
